assayed.target: Glycogen synthase kinase-3 beta (Homo sapiens, UniProt P49841)
method.notes: Binding affinity to GSK-3 beta (unknown origin) assessed as thermal shift at 1.25 mM by differential scanning fluorimetry
Sequence (P49841 whole entry, looked up): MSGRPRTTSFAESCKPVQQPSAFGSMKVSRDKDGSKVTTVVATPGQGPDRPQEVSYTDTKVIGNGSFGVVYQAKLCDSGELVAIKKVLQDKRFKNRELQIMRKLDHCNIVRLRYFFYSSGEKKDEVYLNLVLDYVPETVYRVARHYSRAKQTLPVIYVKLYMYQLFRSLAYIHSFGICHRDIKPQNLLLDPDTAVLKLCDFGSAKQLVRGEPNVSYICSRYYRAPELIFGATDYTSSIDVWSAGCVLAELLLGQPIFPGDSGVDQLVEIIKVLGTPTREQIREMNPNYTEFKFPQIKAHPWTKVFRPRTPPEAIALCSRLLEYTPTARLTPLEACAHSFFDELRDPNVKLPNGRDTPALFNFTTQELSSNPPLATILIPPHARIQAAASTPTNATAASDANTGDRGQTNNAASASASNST
metric.name: deltaT (°C)

record.smiles	numeric.value
O=C1Nc2ncccc2N[C@@H]1Cc1c[nH]c2ccccc12	4.5
CC(C)[C@@H]1Nc2cccnc2NC1=O	0
CC(C)[C@H]1Nc2cccnc2NC1=O	1.6
O=C1Nc2ncccc2N[C@@H]1Cc1ccccc1	1.6
O=C1Nc2ncccc2N[C@H]1Cc1ccccc1	0
O=C1Nc2ncccc2N[C@H]1Cc1c[nH]c2ccccc12	1.7
O=C1Nc2ncccc2N[C@@H]1Cc1ccc(O)cc1	2.9
C[C@H]1Nc2cccnc2NC1=O	1
O=C1Nc2ncccc2N[C@H]1Cc1ccc(O)cc1	2.1
Cc1nc2cccnc2[nH]c1=O	0.5
C[C@@H]1Nc2cccnc2NC1=O	0

* * *

assayed.target: Glycogen synthase kinase-3 beta (Homo sapiens, UniProt P49841)
method.notes: Inhibition of recombinant full-length N-terminal GST tagged human GSK-3 beta expressed in baculovirus infected Sf9 insect cells at 1 mM using GSM as substrate after 5 mins by ADP-Glo luminescence assay
Threshold rule: inhibition greater than or equal to 50% is t; below that, f.

record.smiles	class.assignment
O=C1Nc2ncccc2N[C@H]1Cc1ccccc1	t
C[C@@H]1CNc2ncccc2N1	f
Cc1nc2cccnc2[nH]c1=O	f
C[C@@H]1Nc2ccccc2NC1=O	f
C[C@@H]1Nc2cnccc2NC1=O	f
O=C1Nc2ncccc2N[C@@H]1Cc1ccc(O)cc1	t
CC(C)[C@H]1Nc2cccnc2NC1=O	t
C[C@@H]1Nc2ncccc2NC1=O	t
CC1(C)Nc2cccnc2NC1=O	f
C[C@H]1Nc2ncccc2NC1=O	t
CC(C)[C@@H]1Nc2cccnc2NC1=O	f
C[C@H]1Nc2cnccc2NC1=O	f
C[C@H]1Nc2ccncc2NC1=O	t
O=C1Nc2ncccc2N[C@@H]1Cc1c[nH]c2ccccc12	t
C[C@H]1Nc2cccnc2N(C)C1=O	f
C[C@@H]1Nc2ccncc2NC1=O	t
C[C@H]1Nc2cccnc2NC1=O	f
O=C1Nc2ncccc2N[C@@H]1Cc1ccccc1	t
O=C1Nc2ncccc2N[C@H]1Cc1c[nH]c2ccccc12	t
C[C@H]1Nc2ccccc2NC1=O	f
O=C1Nc2ncccc2N[C@H]1Cc1ccc(O)cc1	t
C[C@@H]1Nc2cccnc2NC1=O	f

* * *

assayed.target: Glycogen synthase kinase-3 beta (Homo sapiens, UniProt P49841)
method.notes: Binding affinity to GSK-3 beta (unknown origin) assessed as assessed as thermal shift at 2.5 mM by differential scanning fluorimetry
The recorded deltaT of each item maps onto one of these classes: range 1: < 0.5 °C; range 2: ≥ 0.5 °C and < 1 °C; range 3: ≥ 1 °C

record.smiles	class.assignment
CC(C)[C@H]1Nc2cccnc2NC1=O	range 3
C[C@H]1Nc2ccncc2NC1=O	range 3
C[C@H]1Nc2ccccc2NC1=O	range 1
C[C@H]1Nc2ncccc2NC1=O	range 3
O=C1Nc2ncccc2N2C[C@H](O)C[C@@H]12	range 2
C[C@@H]1CNc2ncccc2N1	range 1
C[C@H]1Nc2cccnc2N(C)C1=O	range 1
C[C@H]1Nc2cccnc2NC1=O	range 3
C[C@@H]1Nc2ccncc2NC1=O	range 3
C[C@@H]1Nc2ccccc2NC1=O	range 1
CC1(C)Nc2cccnc2NC1=O	range 2

* * *

assayed.target: Glycogen synthase kinase-3 beta (Homo sapiens)
pKd: −log10 of the molar value.
metric.name: pKd

record.smiles	numeric.value
O=C1Nc2ncccc2N[C@@H]1Cc1c[nH]c2ccccc12	5.05

* * *

assayed.target: Glycogen synthase kinase-3 beta (Homo sapiens, UniProt P49841)
method.notes: Binding affinity to GSK-3 beta (unknown origin) assessed as assessed as thermal shift at 2.5 mM by differential scanning fluorimetry

record.smiles	deltaT
C[C@@H]1Nc2cccnc2NC1=O	0.5 °C
C[C@@H]1Nc2ncccc2NC1=O	1 °C
C[C@H]1Nc2cnccc2NC1=O	0.5 °C
O=C1Nc2ncccc2N[C@H]1CO	0.5 °C
C[C@@H]1Nc2cnccc2NC1=O	0.5 °C
